molecular target: Ubiquitin-conjugating enzyme E2 N (Homo sapiens); assay: potency of analogues against UBC13 chain formation – biochemical, TR-FRET, set 2, SAR follow-up (AID 588390); details: UBC13 polyubiquitination
Active and inactive are the calls of the source. No rule for the calls is given here.
Select the matching outcome among active, inactive

COc1ccc(OC)c(NC(=O)CN2CCC(n3c(C)nc4cc(F)ccc43)CC2)c1 :: inactive
O=C(CN1CCC(n2cnc3cc(C(F)(F)F)ccc32)CC1)Nc1ccc2c(c1)OCCO2 :: inactive
CCOc1ccccc1NC(=O)CN1CCC(n2cnc3cc(F)ccc32)CC1 :: active
O=C(c1ccco1)N1CCN(C(=O)C2CCN(c3ncnc4c3nc3n4CCCCC3)CC2)CC1 :: inactive
O=C(CN1CCC(n2cnc3cc(F)ccc32)CC1)Nc1ccccc1Br :: inactive
COC(=O)c1c(NC(=O)C(=O)NCC2CCCO2)sc2c1CC(C)(C)OC2 (configuration not stated) :: active

Query :: Which outcome was entered for the compound O=C(NCCCN1CCN(c2ccccc2)CC1)C1CCCN(c2ncnc3c2nc2n3CCCCC2)C1 (configuration not stated) in this test?
Result :: active
